test system: S. pneumoniae isolates; assay: Disk diffusion susceptibility (CLSI/EUCAST), Example 5; assay type: cell-based, Streptococcus pneumoniae; conditions: P9
quantity.kind: disk diffusion zone diameter
Write your answer as a measured quantity: the number, then the unit.

As a guide, the following entries are already answered.
[[record]]
smiles_str = "CCC[C@@H]1C[C@@H](C(=O)N[C@@H]([C@H]2O[C@H](SC)[C@H](O)[C@@H](O)[C@H]2O)[C@H](C)Cl)N(C)C1"
quantity_kind = "disk diffusion zone diameter"
measured_value = "31 mm"

[[record]]
smiles_str = "Cc1onc(-c2ccccc2)c1C(=O)N[C@@H]1C(=O)N2[C@@H]1SC(C)(C)[C@@H]2C(=O)O"
quantity_kind = "disk diffusion zone diameter"
measured_value = "26 mm"

[[record]]
smiles_str = "O=C(N[C@H](CO)[C@H](O)c1ccc([N+](=O)[O-])cc1)C(Cl)Cl"
quantity_kind = "disk diffusion zone diameter"
measured_value = "31 mm"

[[record]]
smiles_str = "CO[C@H]1/C=C/O[C@@]2(C)Oc3c(C)c(O)c4c(O)c(c(/C=N/N5CCN(C)CC5)c(O)c4c3C2=O)NC(=O)/C(C)=C\\C=C\\[C@H](C)[C@H](O)[C@@H](C)[C@@H](O)[C@@H](C)[C@H](OC(C)=O)[C@@H]1C"
quantity_kind = "disk diffusion zone diameter"
measured_value = "27 mm"

[[record]]
smiles_str = "CN(C)[C@@H]1C(O)=C(C(N)=O)C(=O)[C@@]2(O)C(O)=C3C(=O)c4c(O)cccc4[C@@](C)(O)[C@H]3C[C@@H]12"
quantity_kind = "disk diffusion zone diameter"
measured_value = "32 mm"

[[record]]
smiles_str = "CC[C@H]1OC(=O)[C@H](C)[C@@H](O[C@H]2C[C@@](C)(OC)[C@@H](O)[C@H](C)O2)[C@H](C)[C@@H](O[C@@H]2O[C@H](C)C[C@H](N(C)C)[C@H]2O)[C@](C)(OC)C[C@@H](C)C(=O)[C@H](C)[C@@H](O)[C@]1(C)O"
quantity_kind = "disk diffusion zone diameter"
measured_value = "40 mm"

[[record]]
smiles_str = "CC[C@H]1OC(=O)[C@H](C)[C@@H](O[C@H]2C[C@@](C)(OC)[C@@H](O)[C@H](C)O2)[C@H](C)[C@@H](O[C@@H]2O[C@H](C)C[C@H](N(C)C)[C@H]2O)[C@](C)(O)C[C@@H](C)C(=O)[C@H](C)[C@@H](O)[C@]1(C)O"
quantity_kind = "disk diffusion zone diameter"
measured_value = "32 mm"

[[record]]
smiles_str = "CN[C@H](CC(C)C)C(=O)N[C@H]1C(=O)N[C@@H](CC(N)=O)C(=O)N[C@H]2C(=O)N[C@H]3C(=O)N[C@H](C(=O)N[C@H](C(=O)O)c4cc(O)cc(O)c4-c4cc3ccc4O)[C@H](O)c3ccc(c(Cl)c3)Oc3cc2cc(c3O[C@@H]2O[C@H](CO)[C@@H](O)[C@H](O)[C@H]2O[C@H]2C[C@](C)(N)[C@H](O)[C@H](C)O2)Oc2ccc(cc2Cl)[C@H]1O"
quantity_kind = "disk diffusion zone diameter"
measured_value = "21 mm"


As a next step, examine the molecule that follows.
Lookup: Param item = CC1(C)S[C@@H]2[C@H](NC(=O)[C@H](N)c3ccccc3)C(=O)N2[C@H]1C(=O)O ; retrieve measured disk diffusion zone diameter.
Found: 33 mm

Recorded values, source patent US10253002B2.
